Ref: patent EP4745137A1

Parameter: pIC50. Scope: all listed entries.
# target.system: human Cereblon WT GST-tagged protein (Homo sapiens, UniProt Q96SW2)
# Construct: purchased CISBIO 64BDCRBNPEH
# Sequence (Q96SW2 whole entry): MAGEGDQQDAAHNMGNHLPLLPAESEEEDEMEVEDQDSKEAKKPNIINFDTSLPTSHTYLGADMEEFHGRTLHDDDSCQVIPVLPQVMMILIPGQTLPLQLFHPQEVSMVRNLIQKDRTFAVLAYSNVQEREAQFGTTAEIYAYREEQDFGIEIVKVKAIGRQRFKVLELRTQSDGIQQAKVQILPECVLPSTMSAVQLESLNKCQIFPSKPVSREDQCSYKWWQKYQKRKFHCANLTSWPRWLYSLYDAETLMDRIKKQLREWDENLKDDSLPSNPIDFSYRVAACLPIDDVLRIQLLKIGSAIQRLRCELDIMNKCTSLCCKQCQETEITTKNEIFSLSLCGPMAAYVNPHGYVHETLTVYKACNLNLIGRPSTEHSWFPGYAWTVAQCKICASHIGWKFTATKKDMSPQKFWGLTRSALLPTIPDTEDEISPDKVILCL
# method.summary: CRBN-binding affinity by HTRF (CEREBLON BINDING kit)
# reported.conditions: HTRF inhibitory activity, CEREBLON BINDING kit; read-out: HTRF IC50
pIC50: −log10 of the molar value.

compound: O=C1CCC(N2Cc3cc(CN4CCN(c5cc(F)ccc5F)CC4)ccc3C2=O)C(=O)N1 (stereo not shown)
pIC50: 6.00 to 6.30
//
compound: O=C1CCC(N2Cc3cc(CN4CCN(c5ccc(C(F)(F)F)cn5)CC4)ccc3C2=O)C(=O)N1 (stereo not shown)
pIC50: 5.82 to 6.00
//
compound: Cc1cc(N2CCN(Cc3ccc4c(c3)CN(C3CCC(=O)NC3=O)C4=O)CC2)ccn1 (stereo not shown)
pIC50: 6.00 to 6.30
//
compound: Cc1cc(N2CCN(Cc3ccc4c(c3)CN(C3CCC(=O)NC3=O)C4=O)CC2)cs1 (stereo not shown)
pIC50: 6.00 to 6.30

###

# System: NCI-H1975
# method.summary: Tumor cell proliferation inhibition (CellTiter-Meiluncell Luminescent Cell Viability Assay), NCI-H1975
# reported.conditions: Homo sapiens, NCI-H1975, read-out: inhibitory activity (IC50, nM) against tumor cells proliferation, H1975
Parameter: IC50. Scope: all listed entries.

compound: O=C1CCC(N2Cc3cc(CN4CC=C(c5cccc6c(F)cccc56)CC4)ccc3C2=O)C(=O)N1 (stereo not shown)
IC50: 1 to 5 nM
//
compound: O=C1CCC(N2C(=O)c3ccc(CN4CC=C(c5ncnc6sc(-c7ccccc7)cc56)CC4)cc3C2=O)C(=O)N1 (stereo not shown)
IC50: 100 to 500 nM
//
compound: Cn1cc(C2CCN(Cc3ccc4c(c3)CN(C3CCC(=O)NC3=O)C4=O)CC2)c2ccc(F)cc21 (stereo not shown)
IC50: 1 to 5 nM
//
compound: O=C1CCC(N2C(=O)c3ccc(CN4CCN(c5cccc6sccc56)CC4)cc3C2=O)C(=O)N1 (stereo not shown)
IC50: 500 to 1000 nM

###

# Test system: NCI-H1975
# method.summary: Tumor cell proliferation inhibition (CellTiter-Meiluncell Luminescent Cell Viability Assay), NCI-H1975
# reported.conditions: Homo sapiens, NCI-H1975, 96 h, read-out: inhibitory activity (IC50, nM) against tumor cells proliferation, H1975
Parameter: IC50. Scope: all listed entries.

compound: Cc1cc(Cl)cc(N2CCN(Cc3ccc4c(c3)CN(C3CCC(=O)NC3=O)C4=O)CC2)n1 (stereo not shown)
IC50: 100 to 500 nM
//
compound: Nc1cccc2c1C(=O)N(C1CCC(=O)NC1=O)C2=O (stereo not shown) [pomalidomide, reference compound]
IC50: > 10000 nM
//
compound: O=C1CCC(N2Cc3cc(CN4CC=C(c5ccnc(Cl)c5Cl)CC4)ccc3C2=O)C(=O)N1 (stereo not shown)
IC50: 10 to 50 nM
//
compound: O=C1CCC(N2Cc3cc(CN4CCN(c5ccc(F)cc5)CC4)ccc3C2=O)C(=O)N1 (stereo not shown)
IC50: 100 to 500 nM

###

# target.system: human Cereblon WT GST-tagged protein (Homo sapiens, UniProt Q96SW2)
# Construct: purchased CISBIO 64BDCRBNPEH
# method.summary: CRBN-binding affinity by HTRF (CEREBLON BINDING kit)
# reported.conditions: HTRF inhibitory activity, CEREBLON BINDING kit; read-out: HTRF IC50
pIC50: −log10 of the molar value.
Parameter: pIC50. Scope: all listed entries.

molecule: Cc1nc(C2=CCN(Cc3ccc4c(c3)CN(C3CCC(=O)NC3=O)C4=O)CC2)c2ccsc2n1 (stereo not shown)
target.system: human Cereblon WT GST-tagged protein (Homo sapiens, UniProt Q96SW2)
pIC50: 6.00 to 6.30
//
molecule: O=C1CCC(N2Cc3cc(CN4C5CC4CN(c4cccc(Cl)c4Cl)C5)ccc3C2=O)C(=O)N1 (stereo not shown)
target.system: human Cereblon WT GST-tagged protein (Homo sapiens, UniProt Q96SW2)
pIC50: 6.00 to 6.30
//
molecule: O=C1CCC(N2C(=O)c3ccc(CN4CCN(c5ncnc6sc7c(c56)CCC7)CC4)cc3C2=O)C(=O)N1 (stereo not shown)
target.system: human Cereblon WT GST-tagged protein (Homo sapiens, UniProt Q96SW2)
pIC50: 5.82 to 6.00
//
molecule: O=C1CCC(N2Cc3cc(CN4CCC(c5ccco5)CC4)ccc3C2=O)C(=O)N1 (stereo not shown)
target.system: human Cereblon WT GST-tagged protein (Homo sapiens, UniProt Q96SW2)
pIC50: 6.00 to 6.30
//
molecule: O=C1CCC(N2C(=O)c3ccc(CN4CCN(c5ncnc6sc7c(c56)CCCC7)CC4)cc3C2=O)C(=O)N1 (stereo not shown)
target.system: human Cereblon WT GST-tagged protein (Homo sapiens, UniProt Q96SW2)
pIC50: 6.00 to 6.30
//
molecule: Cc1nc(N2CCN(Cc3ccc4c(c3)CN(C3CCC(=O)NC3=O)C4=O)CC2)c2c(-c3ccccc3)csc2n1 (stereo not shown)
target.system: human Cereblon WT GST-tagged protein (Homo sapiens, UniProt Q96SW2)
pIC50: > 6.30
//
molecule: Cc1ccsc1C1=CCN(Cc2ccc3c(c2F)CN(C2CCC(=O)NC2=O)C3=O)CC1 (stereo not shown)
target.system: human Cereblon WT GST-tagged protein (Homo sapiens, UniProt Q96SW2)
pIC50: 6.00 to 6.30
//
molecule: Cc1cc2c(C3=CCN(Cc4ccc5c(c4)C(=O)N(C4CCC(=O)NC4=O)C5=O)CC3)ncnc2s1 (stereo not shown)
target.system: human Cereblon WT GST-tagged protein (Homo sapiens, UniProt Q96SW2)
pIC50: 6.00 to 6.30
//
molecule: O=C1CCC(N2Cc3cc(CN4C5CCC4CN(c4cccc(Cl)c4Cl)C5)ccc3C2=O)C(=O)N1 (stereo not shown)
target.system: human Cereblon WT GST-tagged protein (Homo sapiens, UniProt Q96SW2)
pIC50: > 6.30
//
molecule: O=C1CCC(N2Cc3cc(CN4CCC(c5ncnc6sccc56)CC4)ccc3C2=O)C(=O)N1 (stereo not shown)
target.system: human Cereblon WT GST-tagged protein (Homo sapiens, UniProt Q96SW2)
pIC50: 6.00 to 6.30
//
molecule: O=C1CCC(N2Cc3cc(CN4CCC(c5cccc(Cl)c5Cl)CC4)ccc3C2=O)C(=O)N1 (stereo not shown)
target.system: human Cereblon WT GST-tagged protein (Homo sapiens, UniProt Q96SW2)
pIC50: 6.00 to 6.30
//
molecule: O=C1CCC(N2Cc3cc(CN4CCC(c5cccc6cnccc56)CC4)ccc3C2=O)C(=O)N1 (stereo not shown)
target.system: human Cereblon WT GST-tagged protein (Homo sapiens, UniProt Q96SW2)
pIC50: > 6.30
//
molecule: Cc1ccccc1N1CCN(Cc2ccc3c(c2)CN(C2CCC(=O)NC2=O)C3=O)CC1 (stereo not shown)
target.system: human Cereblon WT GST-tagged protein (Homo sapiens, UniProt Q96SW2)
pIC50: 5.82 to 6.00
//
molecule: Cc1sc2ncnc(C3=CCN(Cc4ccc5c(c4)C(=O)N(C4CCC(=O)NC4=O)C5=O)CC3)c2c1C (stereo not shown)
target.system: human Cereblon WT GST-tagged protein (Homo sapiens, UniProt Q96SW2)
pIC50: 5.82 to 6.00
//
molecule: O=C1CCC(N2C(=O)c3ccc(CN4CCN(c5ncnc6sc(Br)cc56)CC4)cc3C2=O)C(=O)N1 (stereo not shown)
target.system: human Cereblon WT GST-tagged protein (Homo sapiens, UniProt Q96SW2)
pIC50: 5.72 to 5.82
//
molecule: Cc1cscc1N1CCN(Cc2ccc3c(c2)CN(C2CCC(=O)NC2=O)C3=O)CC1 (stereo not shown)
target.system: human Cereblon WT GST-tagged protein (Homo sapiens, UniProt Q96SW2)
pIC50: 6.00 to 6.30

###

Parameter: pIC50. Scope: all listed entries.
# target.system: human Cereblon WT GST-tagged protein (Homo sapiens)
# Construct: purchased CISBIO 64BDCRBNPEH
# method.summary: CRBN-binding affinity by HTRF (CEREBLON BINDING kit)
# reported.conditions: HTRF inhibitory activity, CEREBLON BINDING kit; read-out: HTRF IC50
pIC50: −log10 of the molar value.

compound: Cc1cc(N2CCN(Cc3ccc4c(c3)CN(C3CCC(=O)NC3=O)C4=O)CC2)cc(C)n1 (centres unmarked)
target.system: human Cereblon WT GST-tagged protein (Homo sapiens)
pIC50: 6.00 to 6.30
--
compound: O=C1CCC(N2Cc3cc(CN4CCN(c5cccc(Br)c5)CC4)ccc3C2=O)C(=O)N1 (centres unmarked)
target.system: human Cereblon WT GST-tagged protein (Homo sapiens)
pIC50: 6.00 to 6.30
--
compound: O=C1CCC(N2C(=O)c3ccc(CN4CCN(c5ncc6ccsc6n5)CC4)cc3C2=O)C(=O)N1 (centres unmarked)
target.system: human Cereblon WT GST-tagged protein (Homo sapiens)
pIC50: 5.82 to 6.00
--
compound: O=C1CCC(N2C(=O)c3ccc(CN4CCN(c5n[nH]c6cc(F)ccc56)CC4)cc3C2=O)C(=O)N1 (centres unmarked)
target.system: human Cereblon WT GST-tagged protein (Homo sapiens)
pIC50: 5.72 to 5.82
--
compound: O=C1CCC(N2Cc3cc(CN4CCC(c5ccccc5)CC4)ccc3C2=O)C(=O)N1 (centres unmarked)
target.system: human Cereblon WT GST-tagged protein (Homo sapiens)
pIC50: 5.82 to 6.00
--
compound: O=C1CCC(N2Cc3cc(CN4CCC(=C5CCOc6cc(F)ccc65)CC4)ccc3C2=O)C(=O)N1 (centres unmarked)
target.system: human Cereblon WT GST-tagged protein (Homo sapiens)
pIC50: > 6.30
--
compound: O=C1CCC(N2Cc3cc(CN4CCC(c5ccon5)CC4)ccc3C2=O)C(=O)N1 (centres unmarked)
target.system: human Cereblon WT GST-tagged protein (Homo sapiens)
pIC50: 5.72 to 5.82
--
compound: O=C1CCC(N2C(=O)c3ccc(CN4CC=C(c5ccco5)CC4)cc3C2=O)C(=O)N1 (centres unmarked)
target.system: human Cereblon WT GST-tagged protein (Homo sapiens)
pIC50: 5.82 to 6.00
